- assay_target: T1, cynomolgus monkey SIRPγ on CHO cells (cynomolgus monkey, UniProt Q9P1W8 29-386 (human entry))
- T1 construct: also called Cyno SIRPγ CHO
- T1 chain: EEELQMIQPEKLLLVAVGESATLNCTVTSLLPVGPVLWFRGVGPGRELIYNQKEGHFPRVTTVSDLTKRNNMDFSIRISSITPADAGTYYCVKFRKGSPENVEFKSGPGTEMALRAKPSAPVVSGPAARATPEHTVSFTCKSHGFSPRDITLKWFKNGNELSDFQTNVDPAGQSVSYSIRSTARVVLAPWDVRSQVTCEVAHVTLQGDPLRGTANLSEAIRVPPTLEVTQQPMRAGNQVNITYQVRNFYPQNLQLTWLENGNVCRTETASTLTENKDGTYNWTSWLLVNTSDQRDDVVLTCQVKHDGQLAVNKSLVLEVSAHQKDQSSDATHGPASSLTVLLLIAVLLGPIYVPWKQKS
- assay_protocol: flow cytometry, myc-scFv PPE

binder: Antibody 53 (scFv, V domains shown, scFv in crude PPE, V5/myc-tagged) VH: QVQLVQSGAEVKKPGASVKVSCKASGHTFNNNYIHWVRQAPGQGLEWMGIINPSGGSTSYAQKFQGRVTMTRDTSTSTVYMELSSLRSEDTAVYYCARQIQDYGYYYYGMDVWGQGTTVTVSS VL: EIVMTQSPATLSVSPGERATLSCRASQSVSKYLAWYQQKPGQAPRLLIYAISARAAGIPARFSGSGSGTEFTLTISSLQSEDFAVYYCQQYYSSPPTFGQGTKVEIK
unit_of_measure: fold
MFI fold change over parental CHO: 6.94

binder: Antibody 30 (scFv, V domains shown, scFv in crude PPE, V5/myc-tagged) VH: QVQLVQSGAEVKKPGASVKVSCKASGYTFTNFDINWVRQAPGQGLEWMGWISAYNGHTNYAQNLQGRVTMTRDTSTSTVYMELSSLRSEDTAVYYCAQEAAAGYFDYWGQGTLVTVSS VL: DIQMTQSPSSLSASVGDRVTITCRASQDIRNDLAWYQQKPGKAPKLLIYDASNLETGVPSRFSGSGSGTDFTLTISSLQPEDFATYYCQQSYGTPYTFGQGTKLEIK
unit_of_measure: fold
MFI fold change over parental CHO: 3.76

Values compiled from patent US20240400677A1.
